assay-details: protein stability index of a GFP-peptide fusion (GPS, HEK-293T) (PSI 1-6); higher = more stable;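 further: 24-mer peptide tiles fused after GFP, lentivirally expressed, FACS-sorted into six equal bins by GFP/DsRed ratio, decoded by Illumina sequencing, PSI is the read-weighted mean bin number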
test-settings: treatment: MLN4924 1 uM, 8 h; c terminus: a fixed tail appended
Kindly state protein stability index for each of the entries shown.
One number for each entry.

Sample records with protein stability index:
sequence-text	protein stability index
HNTVKLGAFQAQEKELVFDIDMTD [PRIM1]	4.52
GRHLELANQKLSEKLAAGALPHIN [CCDC3]	3.79
DLVLHTNYTATVRGLRGPNLTSPA [TNXB]	2.71
RWMGLACFRSLAASSPSIRQKKLM [CCDC70]	2.29
LYLFGGHHSRGNTNKFYMLDSRST [KLHDC2]	2.17
DGAISAHKPLLICSCEWMAAMFGG [RHOBTB1]	2.3
PLLKDEGFAVKALWGRTQEEAEEL [GFOD1]	4.92
NSNGGNLNSPPGPHSAKTEEHTTI [CDC14A]	5.49
TINPSKRITAAEALKHPWISHRST [CAMK2A]	3.21
SELRTKVQEQQKQLQDQDQKLLEQ [FBXO28]	5.48

Please supply protein stability index for each of the following items, keeping them in order.
1. KEIDDVIDEIISLESSYNDEMLSY [TFE3]
2. PKKPIGGNIIAHASTTRLYLRKGR [RAD51]
3. FYIGKYFGGVLEYFMIQALNQKTS [RHOBTB3]

Reply:
[3.5, 3.74, 3.31]

---

Kindly state protein stability index for each of the entries shown.
assay-details: protein stability index of a GFP-peptide fusion (GPS, HEK-293T) (PSI 1-6); higher = more stable
test-settings: treatment: DMSO; c terminus: a fixed tail appended
Answers are plain numbers.

sequence-text	protein stability index
KSGEEAVTVLEDLEKGLEPEPQVP [ZNF232]	5.63
RLKLMQQNPAGELEGFQAQGHPPS [ATE1]	4.29

Please supply protein stability index for each of the following items, keeping them in order.
1. VAARTPAVEGLTEAEEEELRAELT [TPD52L2]
2. ITFSGRPSRVHASEVESAVWYVKK [FBXO39]
3. FLMDLPSAGRSMPEASDQEEHLSP [RNF180]
4. GGFGGGVGGGFGGGFGGGDGGLLS [KRT15]

Reply:
[5.56, 2.41, 4.82, 3.4]

---

assay-details: protein stability index of a GFP-peptide fusion (GPS, HEK-293T) (PSI 1-6); higher = more stable
test-settings: treatment: MLN4924 1 uM, 8 h; c terminus: a fixed tail appended
measurement-kind: protein stability index
Numbers only.

sequence-text	protein stability index
TAERITQLSAPHCKKLSLELGGKN [ALDH8A1]	3.98
ITFSGRPSRVHASEVESAVWYVKK [FBXO39]	2.68
NYLAEHCPPLHIPGSMSEVQELCK [TNNI2]	3.78
LRRKEQLWEKLAKQGELPREVRRA [NOP53]	3.7
PLLCPSYQSYFKTIEELQQKILCS [KRT33B]	2.56
DITRYYLCLQLRDDIVSGRLPCSF [EPB41L3]	2.63
TSTPPPASVINNMLAEIFCQTGGV [ZBED1]	2.73
ELLCCTNVSTKEGIHLALVELLKN [INTS4]	2.4
HVMNPLETLSITNCRLSEGDVMHL [PRAME]	2.4
GFSCNQGRYPLIQTLRQELSLPYL [CHIT1]	2.4

Please supply protein stability index for each of the following items, keeping them in order.
1. YKPEQPLVRLRGGAYIGEGRVEVL [LOXL2]
2. CMVGYDMGATRCDFTLSKTNMARI [CPXM2]
3. PPGLPRVSAYVDTTADLDRKLSFS [SPATS1]
4. SWEGLAVLDSLLLTLLPQLQEAWQ [RSAD1]
5. KMKYKGQYRPSDLLCPETYVWVPI [ATE1]
6. KQECLITTFQDVYFVSESFEDAKE [TPH1]
7. FFGMAFNFIVNDSRKKPIWNVLMW [SOAT1]
8. TQGQEKMMMMGPKEEEQSCEYETR [ZNF232]

Reply:
1. 2.97
2. 2.1
3. 3.96
4. 3.22
5. 2.03
6. 4.45
7. 2.19
8. 5.59
